Assay: High Throughput Screening for Foot and Mouth Disease Virus Antivirals; note: read-out not given here; nearly all actives have a fitted effect of over 45% in size
Conditions: FMDV antiviral cell-based qHTS; series mostly up to 57.9 µM
The campaign covered roughly 410,000 compounds. About 5,100 (1.2%) were called active. Inconclusive results (about 8%) are left out. Calls come from the whole dose curve; tested in HEK293T cells. Only a selection was taken, and actives are over-represented in it overall.
Respond using exactly one of the listed classes: active, inactive

As a guide, the following entries are already answered.
> print(dat)
                            molecularstring  categorylabel
1  Cc1ccccc1OCC(=O)Nc1ccc(N2CCN(C(=O)C(C)C)CC2)c(Cl)c1         active
2  CC(C)(C)n1ncc2c(=O)n(Cc3ccc(Cl)cc3)cnc21         active
3  Cc1ccc(NC(=O)COc2coc(CN3CCc4ccccc4C3)cc2=O)cc1Cl       inactive

[Q] Each compound tested received a call. Report the one for Cc1ccccc1OCC(=O)NNC(=O)c1cc(S(=O)(=O)N(C)C)ccc1N1CCCC1 .
[A] inactive

[Q] Each compound tested received a call. Report the one for Cc1ccccc1-c1nc(CS(=O)(=O)CC(=O)N2CCc3ccccc3C2)c(C)o1 .
[A] inactive

These measurements were taken from PubChem BioAssay AID1159524.
